# Test system: LB831-BLC (Bladder Carcinoma)
# TEST: combination Emax (second highest fraction inhibited in the dose matrix, 72 h); higher = more inhibition; extreme values may be limits of the assay
QUANTITY_KIND: combination Emax
The response must contain the number and no unit.

Consider the worked cases shown below.
COc1nnc2ccc(N3CCC(c4ccc(OCCN5CCN(C)C(=O)[C@H]5C)cc4)CC3)nn12 [AZD5153] + CC1(C)CCC(CN2CCN(c3ccc(C(=O)NS(=O)(=O)c4ccc(NCC5CCOCC5)c([N+](=O)[O-])c4)c(Oc4cnc5[nH]ccc5c4)c3)CC2)=C(c2ccc(Cl)cc2)C1 [Venetoclax] (first compound max 1 µM, 7x7, partner max 1 µM)	0.499
NC1(C(=O)N[C@@H](CCO)c2ccc(Cl)cc2)CCN(c2ncnc3[nH]ccc23)CC1 [Capivasertib] + Cn1cnc2c(F)c(Nc3ccc(Br)cc3Cl)c(C(=O)NOCCO)cc21 [Selumetinib] (first compound max 10 µM, 7x7, partner max 10 µM)	0.545
CCN(CCO)CCCOc1ccc2c(Nc3cc(CC(=O)Nc4cccc(F)c4)[nH]n3)ncnc2c1 [AZD2811] + O=C(c1cc(Cc2n[nH]c(=O)c3ccccc23)ccc1F)N1CCN(C(=O)C2CC2)CC1 [Olaparib] (first compound max 1 µM, 7x7, partner max 10 µM)	0.268
CN(CCO)CC[C@H](CSc1ccccc1)Nc1ccc(S(=O)(=O)NC(=O)c2ccc(N3CCC([C@@H](O)c4ccccc4-c4ccc(Cl)cc4)CC3)cc2)cc1S(=O)(=O)C(F)(F)F [AZD4320] + Cn1cnc2c(F)c(Nc3ccc(Br)cc3Cl)c(C(=O)NOCCO)cc21 [Selumetinib] (first compound max 1 µM, 7x7, partner max 3 µM)	0.373
COc1cccc(OCCCN)c1-c1cc(Nc2cnc(C#N)cn2)n[nH]1 [Prexasertib] + Cc1cc2ncnn2cc1Nc1ncc2c(n1)n(C1CCOCC1)c(=O)n2C [AZD7648] (first compound max 1 µM, 7x7, partner max 10 µM)	0.314
CCN(CCO)CCCOc1ccc2c(Nc3cc(CC(=O)Nc4cccc(F)c4)[nH]n3)ncnc2c1 [AZD2811] + C[C@@H]1COCCN1C2=NC(=NC(=C2)C3(CC3)[S@](=N)(=O)C)C4=C5C=CNC5=NC=C4 [AZD6738] (first compound max 1 µM, 7x7, partner max 10 µM)	0.238

We next turn to a different compound, shown below.
Data request: Would you mind telling me what combination Emax value was observed for Cn1cnc2c(F)c(Nc3ccc(Br)cc3Cl)c(C(=O)NOCCO)cc21 [Selumetinib] + C[C@@H]1COCCN1C2=NC(=NC(=C2)C3(CC3)[S@](=N)(=O)C)C4=C5C=CNC5=NC=C4 [AZD6738] (first compound max 10 µM, 7x7, partner max 10 µM) ?
Data returned: 0.278
